Exercise: for every item that follows, state its recorded Percent Effect.
Tested on: Wolbachia pipientis
Experiment: Anti-Wolbachia Cell-Based Screen
Type: functional
Parameters: scale not given: in the data most compounds retested in dose-response had high values
Conditions: 5 µM
The campaign covered roughly 48,000 compounds. About 13,000 (27%) showed an effect of 50% or more. This is one part of the list.

Exam item: Look up Percent Effect with Wolbachia pipientis for this compound: `CC(C)NC(=O)C[C@@H]1CCNC[C@@H]1Cc1cc(-c2ccccc2)on1`
Marked response: 3.733%

Exam item: Please do the same for `N#Cc1cccnc1Oc1cc(F)c(CN2CCCC2)c(Cl)c1` as well.
Marked response: 85.58%

Exam item: Please do the same for `O=C(O)C1(Cc2cc(-c3ccccc3F)no2)CCOCC1` as well.
Marked response: 118.9%

Exam item: Please do the same for `COc1cc(Oc2ncccc2C(F)(F)F)ccc1CN1CCCC1` as well.
Marked response: 7.614%

Exam item: Please do the same for CC(C)N(C)S(=O)(=O)N1CCCC1CC(=O)c1cccs1 (stereo not given) as well.
Marked response: 9.795%

Exam item: Please do the same for `O=C(CNC1(CCO)CCOCC1)Nc1ccc(F)cc1F` as well.
Marked response: 0.1585%

Exam item: Please do the same for `N#Cc1ccc(Oc2cc(F)c(CN3CCCC3)c(F)c2)nc1` as well.
Marked response: 28.32%

Exam item: Please do the same for `Cc1cc(NCC2(O)CCOCC2)c2ccccc2n1` as well.
Marked response: 18.91%

Exam item: Please do the same for `Cc1cc(Br)oc1C(=O)N1CCC(N(C)C)CC1` as well.
Marked response: -50.6%

Exam item: Please do the same for `CC(C)CN1CC[C@H](c2nnc(COc3ccc(F)cc3)o2)C1` as well.
Marked response: 3.256%

* * *

System: Wolbachia pipientis
Test: Anti-Wolbachia Cell-Based Screen
Format: functional
Set-up: scale not given: in the data most compounds retested in dose-response had high values
Details: 5 µM
Screen size: about 48,000 compounds; about 13,000 (27%) showed an effect of 50% or more. The list shows a part of the results.
Assay endpoint: Percent Effect (%)
Give the value in % but do not write % after it.

Exam item: Percent Effect for `Cn1ccnc1CN1CCc2onc(COCC3CC3)c2C1.O=C(O)C(F)(F)F` ?
Marked response: 94.95

Exam item: Please do the same for `Cc1cnn(CC2CC2)c1NC(=O)c1cccnc1O` as well.
Marked response: -0.1453

Exam item: Please do the same for Cc1cc(CN2CCC(CNC(=O)c3ccc(C#N)cc3)C2)[nH]n1 (stereo not given) as well.
Marked response: -6.827

Exam item: Please do the same for `Cn1cc(CN2CCCn3cnc(COCC4CC4)c3C2)cn1` as well.
Marked response: -7.099

Exam item: Please do the same for `O=C(O)C(F)(F)F.c1ccn(Cc2noc3c2CN(Cc2ccsc2)CC3)c1` as well.
Marked response: -2.985

* * *

Test system: Wolbachia pipientis
Assay: Anti-Wolbachia Cell-Based Screen
Type: functional
Set-up: scale not given: in the data most compounds retested in dose-response had high values
Conditions: 5 µM
The campaign covered roughly 48,000 compounds. About 13,000 (27%) showed an effect of 50% or more. The list shows a part of the results.
Exercise: for every item that follows, state its recorded Percent Effect.
Give the value in % but do not write % after it.

Exam item: Percent Effect for Cc1ccc2nc(C(=O)N3CCNC(=O)C3c3cccc(F)c3)cn2c1 (stereo not drawn) ?
Marked response: -1.772

Exam item: Please do the same for Cn1cnc2c1C(COCc1ccccc1)N(Cc1cccnc1)CC2.O=C(O)C(F)(F)F.O=C(O)C(F)(F)F.O=C(O)C(F)(F)F (stereo not drawn) as well.
Marked response: 3.52

Exam item: Please do the same for CCOCC1c2c(ncn2C(C)C)CCN1C(C)C.O=C(O)C(F)(F)F.O=C(O)C(F)(F)F (stereo not drawn) as well.
Marked response: 0.9894

These measurements were taken from ChEMBL document CHEMBL3988442.
